# SYSTEM_TESTED: Histone deacetylase 2 (Homo sapiens) (UniProt Q92769);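 further: fluorescence readout of HDAC2 deacetylase activity, compound preincubated with HDAC2 5 min before substrate, signal read after 30 min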
# Sequence (Q92769 whole entry): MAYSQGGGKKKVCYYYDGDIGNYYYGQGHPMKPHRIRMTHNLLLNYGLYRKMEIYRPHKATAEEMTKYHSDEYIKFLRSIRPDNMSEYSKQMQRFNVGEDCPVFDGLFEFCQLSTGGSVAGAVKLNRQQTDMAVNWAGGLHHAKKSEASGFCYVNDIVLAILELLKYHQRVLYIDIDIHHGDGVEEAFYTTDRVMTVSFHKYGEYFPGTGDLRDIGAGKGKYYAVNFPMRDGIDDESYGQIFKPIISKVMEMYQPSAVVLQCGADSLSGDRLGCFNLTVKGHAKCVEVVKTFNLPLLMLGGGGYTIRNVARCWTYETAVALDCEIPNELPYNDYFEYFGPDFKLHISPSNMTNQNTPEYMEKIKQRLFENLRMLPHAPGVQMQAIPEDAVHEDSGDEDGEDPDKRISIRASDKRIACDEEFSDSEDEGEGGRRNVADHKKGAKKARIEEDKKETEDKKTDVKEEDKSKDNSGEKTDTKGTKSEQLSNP
# COND: at 10 µM
# Description: Inhibition of HDAC2 (unknown origin)-mediated deacetylation at 10 uM preincubated for 5 mins prior to substrate addition measured after 30 mins by fluorescence assay
Active and inactive are the calls of the source. The calls are words filed in the database; no cut-off is given here.
READOUT_KIND: inhibition

COc1ccc(S(=O)(=O)N(Cc2cccnc2)[C@@H](C(=O)NO)C(C)C)cc1 [CGS-27023A] ... inactive
CC(c1cc2ccccc2s1)N(O)C(N)=O (stereo not given) ... inactive
O=C(O)[C@H](Cc1ccccc1)NS(=O)(=O)c1ccc(-c2ccccc2)cc1 ... inactive
Cc1nc(C(=O)NCc2ccc(F)cc2)c(O)c(=O)[nH]1 ... inactive
O=C(/C=C/c1ccc(Cl)cc1Cl)NO ... Active
C[C@H](CS)C(=O)N1CCC[C@H]1C(=O)O ... inactive

# map each compound to its inhibition
1. CC(=O)Nc1nnc(S(N)(=O)=O)s1
2. O=C(NCc1ccc(-c2ccccc2)cc1)c1cccc(=O)n1O
3. CC(=O)N(O)CCCCCNC(=O)CCC(=O)N(O)CCCCCNC(=O)CCC(=O)N(O)CCCCCN
4. CC(/C=C/C(=O)NO)=C\[C@@H](C)C(=O)c1ccc(N(C)C)cc1

["inactive", "inactive", "inactive", "Active"]

###

# SYSTEM_TESTED: UniProt P12821
# Sequence (P12821 whole entry): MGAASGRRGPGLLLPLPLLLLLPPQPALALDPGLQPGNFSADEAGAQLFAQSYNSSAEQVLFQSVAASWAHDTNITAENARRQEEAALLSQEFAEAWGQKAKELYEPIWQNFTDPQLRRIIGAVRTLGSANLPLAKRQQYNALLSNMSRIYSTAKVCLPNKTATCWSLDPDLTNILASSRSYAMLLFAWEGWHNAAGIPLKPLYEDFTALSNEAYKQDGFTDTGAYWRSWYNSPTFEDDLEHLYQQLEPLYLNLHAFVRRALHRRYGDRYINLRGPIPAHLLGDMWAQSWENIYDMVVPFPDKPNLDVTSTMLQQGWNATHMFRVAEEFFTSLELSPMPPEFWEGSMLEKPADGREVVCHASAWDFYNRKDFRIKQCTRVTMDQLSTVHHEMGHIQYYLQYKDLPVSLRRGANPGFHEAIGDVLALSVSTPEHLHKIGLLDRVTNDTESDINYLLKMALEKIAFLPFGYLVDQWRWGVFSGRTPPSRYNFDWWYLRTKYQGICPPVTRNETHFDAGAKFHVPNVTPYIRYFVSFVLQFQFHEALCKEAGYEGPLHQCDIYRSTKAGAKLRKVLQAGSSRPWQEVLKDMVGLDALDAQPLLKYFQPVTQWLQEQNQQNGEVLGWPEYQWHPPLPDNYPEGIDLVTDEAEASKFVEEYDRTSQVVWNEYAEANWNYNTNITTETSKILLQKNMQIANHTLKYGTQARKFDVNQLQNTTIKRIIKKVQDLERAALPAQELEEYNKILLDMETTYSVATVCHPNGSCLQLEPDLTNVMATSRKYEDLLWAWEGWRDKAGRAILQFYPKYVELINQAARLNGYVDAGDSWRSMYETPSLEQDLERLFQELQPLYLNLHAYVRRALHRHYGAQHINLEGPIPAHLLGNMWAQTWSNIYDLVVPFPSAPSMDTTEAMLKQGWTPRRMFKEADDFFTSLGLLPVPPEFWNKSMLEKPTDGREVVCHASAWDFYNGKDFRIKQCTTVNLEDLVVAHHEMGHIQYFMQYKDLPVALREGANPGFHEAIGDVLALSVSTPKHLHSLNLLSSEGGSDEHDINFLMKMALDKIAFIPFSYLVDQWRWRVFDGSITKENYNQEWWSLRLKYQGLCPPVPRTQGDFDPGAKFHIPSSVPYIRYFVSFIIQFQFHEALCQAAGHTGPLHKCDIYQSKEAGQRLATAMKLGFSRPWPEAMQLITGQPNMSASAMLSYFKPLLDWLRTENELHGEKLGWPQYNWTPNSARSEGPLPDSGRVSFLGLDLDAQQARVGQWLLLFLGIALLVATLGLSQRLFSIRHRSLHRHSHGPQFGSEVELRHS
# PROTOCOL_TEXT: Inhibition of human recombinant ACE/CD143 somatic form using Mca-Pro-Leu-Gly-Leu-Dpa-Ala-Arg-NH2.AcOH as substrate at 10 uM preincubated for 10 mins prior to substrate addition measured for 30 mins by spectrophotometric analysis
Active and inactive are the calls of the source. The rule behind the calls is not given here.
Answer with one of the outcomes active, inactive

COc1ccc(S(=O)(=O)N(Cc2cccnc2)[C@@H](C(=O)NO)C(C)C)cc1 [CGS-27023A] ... active
O=C(O)[C@H](Cc1ccccc1)NS(=O)(=O)c1ccc(-c2ccccc2)cc1 ... inactive
O=C(CCCCCCC(=O)Nc1ccccc1)NO ... active

Okay, next one:
// return assay outcome for O=C(NCc1ccc(-c2ccccc2)cc1)c1cccc(=O)n1O
active

###

# SYSTEM_TESTED: UniProt P08253
# Sequence (P08253 110-660 limits assumed): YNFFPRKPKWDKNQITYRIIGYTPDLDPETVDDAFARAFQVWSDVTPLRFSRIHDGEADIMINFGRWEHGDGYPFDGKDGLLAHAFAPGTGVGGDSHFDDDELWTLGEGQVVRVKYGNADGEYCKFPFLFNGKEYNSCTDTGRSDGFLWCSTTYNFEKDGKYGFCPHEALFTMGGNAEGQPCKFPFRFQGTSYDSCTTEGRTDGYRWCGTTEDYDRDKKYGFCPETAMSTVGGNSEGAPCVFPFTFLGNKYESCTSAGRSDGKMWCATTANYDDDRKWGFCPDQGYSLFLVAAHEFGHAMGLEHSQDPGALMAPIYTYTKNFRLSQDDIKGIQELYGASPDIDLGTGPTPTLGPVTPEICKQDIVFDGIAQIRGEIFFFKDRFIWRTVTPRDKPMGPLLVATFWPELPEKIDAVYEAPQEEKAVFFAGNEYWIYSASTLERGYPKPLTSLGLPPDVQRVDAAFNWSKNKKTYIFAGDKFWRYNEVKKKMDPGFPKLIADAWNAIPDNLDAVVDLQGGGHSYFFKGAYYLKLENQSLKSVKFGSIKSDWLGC
# PROTOCOL_TEXT: Inhibition of human recombinant MMP-2 using Mca-Pro-Leu-Gly-Leu-Dpa-Ala-Arg-NH2.AcOH as substrate at 10 uM preincubated for 30 mins prior to substrate addition measured for 30 mins by fluorescence assay relative to control
The source made the active and inactive calls. No cut-off for these calls is given here.
READOUT_KIND: inhibition

O=C(/C=C/c1ccc(Cl)cc1Cl)NO ... < 25%
CC(c1cc2ccccc2s1)N(O)C(N)=O (stereo not given) ... Active
O=C(O)[C@H](Cc1ccccc1)NS(=O)(=O)c1ccc(-c2ccccc2)cc1 ... Active
O=C(NCc1ccc(-c2ccccc2)cc1)c1cccc(=O)n1O ... 80%
CC(=O)N(O)CCCCCNC(=O)CCC(=O)N(O)CCCCCNC(=O)CCC(=O)N(O)CCCCCN ... Active

Look at each compound and report its inhibition.
1. COc1ccc(S(=O)(=O)N(Cc2cccnc2)[C@@H](C(=O)NO)C(C)C)cc1 [CGS-27023A]
2. CC(=O)Nc1nnc(S(N)(=O)=O)s1
3. O=C(CCCCCCC(=O)Nc1ccccc1)NO
4. C[C@H](CS)C(=O)N1CCC[C@H]1C(=O)O
5. Cc1nc(C(=O)NCc2ccc(F)cc2)c(O)c(=O)[nH]1

95%
Active
< 25%
< 10%
50%

Values were extracted from ChEMBL document CHEMBL2434956.
